Target Or System: Kinase A and SpoOF (Bacillus subtilis)
Assay Overview: Autophosphorylation of Kinase A and transphosphorylation of SpoOF assay (HPK in vitro assay)
Format: biochemical
Test Conditions: inhibition of KinA autophosphorylation / SpoOF transphosphorylation, [32P]ATP, gel and phosphoimager
Consider the following molecules and their measured log10 IC50 readings.
Log scale reminder: IC50 in µM, then log10 taken.

Example results:
Molecule: O=C(O)C(=O)O.c1ccc(C(CCOc2ccc(N3CCNCC3)cc2)c2ccccc2)cc1
Reported: 2.12
--
Molecule: NCCc1ccc(O[C@@H]2CC[C@H](c3ccccc3)c3ccccc32)cc1 (relative stereo)
Reported: 1.84
--
Molecule: NCCc1ccc(OCCC(c2ccccc2)c2ccccc2)cc1
Reported: 1.49
--
Molecule: NCCc1ccc(OC(c2ccccc2)c2ccccc2)cc1
Reported: 1.83

Exam item: // Input: O=C(CC(c1ccccc1)c1ccccc1)Nc1ccc(N2CCNCC2)cc1 [Compound 13, HYDRATE] . Output its log10 IC50 only.
Marked response: 2.58

Exam item: // Input: `NCCCc1ccc(OCC=C(c2ccccc2)c2ccccc2)cc1` . Output its log10 IC50 only.
Marked response: 1.29

Exam item: // Input: C1=C(c2ccc(OCCOC(c3ccccc3)c3ccccc3)cc2)CCNC1 [Compound 25, HYDRATE] . Output its log10 IC50 only.
Marked response: 2.50

Exam item: // Input: `N=C(N)NCCc1ccc(OCCC(c2ccccc2)c2ccccc2)cc1` . Output its log10 IC50 only.
Marked response: 1.33

Exam item: // Input: `N=C(N)NCCc1ccc(OCCN(Cc2ccccc2)Cc2ccccc2)cc1` . Output its log10 IC50 only.
Marked response: 1.78

Exam item: // Input: N=C(N)NCc1cccc(OCCC(c2ccccc2)c2ccccc2)c1 [Compound 7, HYDRATE] . Output its log10 IC50 only.
Marked response: 1.78

Exam item: // Input: `Brc1ccc(OCCC(c2ccccc2)c2ccccc2)cc1` . Output its log10 IC50 only.
Marked response: 2.81

====

Consider the following compounds and their measured IC50 readings.
Target Or System: Kinase A and SpoOF (Bacillus subtilis)
Assay Overview: Autophosphorylation of Kinase A and transphosphorylation of SpoOF assay (HPK in vitro assay)
Assay type: biochemical
Test Conditions: inhibition of KinA autophosphorylation / SpoOF transphosphorylation, [32P]ATP, gel and phosphoimager
Enter your answer as a number in µM; do not include the unit.

Compound: O=CN1CCN(c2ccc(OCCC(c3ccccc3)c3ccccc3)cc2)CC1 [Compound 12, HYDRATE]
Target Or System: Kinase A and SpoOF (Bacillus subtilis)
IC50 / µM: 165

From here, focus on the item given below.
Exam item: // Input: C1=C(c2ccc(OCCC(c3ccccc3)c3ccccc3)cc2)CCNC1 [Compound 15, HYDRATE] . Output its IC50 only.
Marked response: 45.6

====

Target Or System: Kinase A and SpoOF (Bacillus subtilis, UniProt P16497)
Sequence (P16497 whole entry): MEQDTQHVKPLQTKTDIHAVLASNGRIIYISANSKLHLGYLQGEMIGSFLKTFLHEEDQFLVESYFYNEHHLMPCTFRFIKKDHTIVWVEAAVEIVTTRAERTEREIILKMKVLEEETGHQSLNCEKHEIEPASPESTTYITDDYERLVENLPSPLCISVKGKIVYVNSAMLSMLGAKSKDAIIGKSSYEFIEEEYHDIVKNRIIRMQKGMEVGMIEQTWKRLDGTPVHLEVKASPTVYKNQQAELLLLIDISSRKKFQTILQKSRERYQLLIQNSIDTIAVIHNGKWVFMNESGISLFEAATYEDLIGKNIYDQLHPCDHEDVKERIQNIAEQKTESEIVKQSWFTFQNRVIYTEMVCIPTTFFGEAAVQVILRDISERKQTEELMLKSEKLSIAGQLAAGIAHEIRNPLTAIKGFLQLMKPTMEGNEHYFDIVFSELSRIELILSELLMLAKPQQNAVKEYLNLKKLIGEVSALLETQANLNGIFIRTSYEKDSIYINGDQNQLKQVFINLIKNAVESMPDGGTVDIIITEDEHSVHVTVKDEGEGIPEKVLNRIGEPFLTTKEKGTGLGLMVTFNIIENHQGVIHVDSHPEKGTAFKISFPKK
Assay Overview: Autophosphorylation of Kinase A and transphosphorylation of SpoOF assay (HPK in vitro assay)
Type: biochemical
Test Conditions: inhibition of KinA autophosphorylation / SpoOF transphosphorylation, [32P]ATP, gel and phosphoimager
Property Measured: IC50

Example results:
Compound: NCCc1ccc(OCCC(c2ccccc2)c2cccnc2)cc1 (stereo not shown) [Compound 18, HYDRATE]
IC50: > 100 µM
--
Compound: NCCc1ccc(NC/C=C(/c2ccccc2)c2cccnc2)cc1 [Compound 20, HYDRATE]
IC50: > 500 µM
--
Compound: NCCc1ccc(NC/C=C(\c2ccccc2)c2cccnc2)cc1 [Compound 21, HYDRATE]
IC50: > 500 µM
--
Compound: NCCc1ccc(OCC=C(c2ccccc2)c2ccccc2)cc1 [Compound 9]
IC50: 41 µM
--
Compound: NCc1cccc(OCCC(c2ccccc2)c2ccccc2)c1 [Compound 8, HYDRATE]
IC50: 42.9 µM

Exam item: // Input: N=C(N)NCCc1ccc(OCCC2c3ccccc3-c3ccccc32)cc1 [Compound 4] . Output its IC50 only.
Marked response: 19.8 µM

Exam item: // Input: c1ccc(C(OCCOc2ccc(N3CCNCC3)cc2)c2ccccc2)cc1 [Compound 24, HYDRATE] . Output its IC50 only.
Marked response: 769 µM
